tested on: NCI/ADR-RES; assay: NCI tumour cell line growth inhibition, 48 h
The source made the active and inactive calls. Rule as the data show it: active = GI50 up to about 1.1 µM and inactive = higher.
reported.endpoint: GI50

The cases that follow already have their GI50 on record.
[
  {
    "compound": "CCOC(=O)C(NC(=O)c1ccccc1)(Nc1ccc(S(=O)(=O)Nc2cc(C)nc(C)n2)cc1)C(F)(F)F (stereo not given)",
    "GI50": "> 100 µM (inactive)"
  },
  {
    "compound": "CC(=O)[C@@]1(C)CC2(CCN(C)CC2)OC1C (stereo not given in full)",
    "GI50": "> 100 µM (inactive)"
  },
  {
    "compound": "c1ccc2c(c1)SCCC2NC1=NCCO1 (stereo not given)",
    "GI50": "> 100 µM (inactive)"
  },
  {
    "compound": "CC(C)=CCC[C@@H](C)C1=C(O)C(=O)C(C)=C(Nc2ccccc2F)C1=O",
    "GI50": "3.49 µM (inactive)"
  }
]

Here is the next item to consider.
Qu. Need GI50 of O=C1/C(=C\c2cccc(Oc3ccccc3)c2)S(=O)(=O)C(c2ccccc2)N1c1ccc(Cl)cc1 (stereo not given) , thanks.
Ans. 17.3 µM (inactive)

###

test system: NCI-H522; test: NCI tumour cell line growth inhibition, 48 h
Active and inactive are the calls of the source. No stated cut-off is given here; in the data, active = GI50 up to about 1.1 µM and inactive = higher.
Valid outcomes are listed here; reply with one: true = active, false = inactive

[
  {
    "compound": "CCC(/C=C/c1ccccc1)=N\\NC(=S)N/N=C(/C=C/c1ccccc1)CC",
    "assigned.class": "false"
  },
  {
    "compound": "Cc1cc(-c2ccc(C(=O)O)[nH]2)on1",
    "assigned.class": "false"
  },
  {
    "compound": "COc1ccc2c(CC(=O)O)cc(=O)oc2c1",
    "assigned.class": "false"
  },
  {
    "compound": "CN(C)c1ccc(/C=N/n2c(-c3ccccc3)nc3ccccc3c2=O)cc1",
    "assigned.class": "false"
  },
  {
    "compound": "COc1c(C)c(C/C=C(\\C)CCCCO[Si](c2ccccc2)(c2ccccc2)C(C)(C)C)c(OC)c(OC)c1OC",
    "assigned.class": "false"
  }
]

Qu. Dear colleague, could you share the recorded outcome for CC(C)=CCC/C(C)=C/Cc1c(O)ccc2c1[nH]c1cc(O)c(C)cc12 when you have a moment?
Ans. false

Qu. Please state the recorded outcome for this compound: Cn1sc2ccccc2c1=S
Ans. false

Qu. What did the test return for O=C1CSSCC(=O)Nc2ccccc2N1 ?
Ans. false

Qu. Outcome? O=[N+]([O-])c1cccc(C2=NOC3CCCC23)c1 (stereo unspecified)
Ans. false

Qu. Hi team, can someone confirm the assay call for Cc1c(C(=O)/C=C/c2ccccc2O)c(=O)n(-c2ccccc2)n1C ?
Ans. false

Qu. Hi, sorry to bother you, what did the test record for CC#CC#C/C=C1/O[C@]2(CCC(OC(=O)CC(C)C)CO2)[C@@H]2O[C@H]12 (stereo partly specified) ?
Ans. false

Qu. What outcome does the record of this test show for CC(ON(C(c1ccccc1)C(C)C)C(C)(C)C)c1ccccc1 (stereo unspecified) ?
Ans. false

Qu. Would you mind telling me which call this test gave O=C(O)c1c2c(c(C(=O)O)c3ccccc13)-c1ccccc1-2 ?
Ans. false

Qu. What did this assay record as the result for Cc1[nH]n(-c2ncc(C(=O)O)c(=O)[nH]2)c(=O)c1CCO ?
Ans. false

Qu. Which outcome was assigned to CC(NC(=O)C(C)C(=O)NCc1ccc(C(F)(F)F)cc1)C(N)=O (stereo unspecified) in this test?
Ans. false

Qu. // param item: COc1ccc(C(=O)c2c(C(C(=O)c3ccc(OC)cc3)C(=O)c3ccc(OC)cc3)n(C(=O)c3ccc(OC)cc3)c3ccccc23)cc1 ; yields the recorded call
Ans. false

Qu. Please share the test call associated with O=C(O)C(CCc1ccccn1)c1ccccc1 (stereo unspecified) .
Ans. false

Qu. // return assay outcome for C[n+]1c2ccccc2c(C(=O)Nc2ccc(S(=O)(=O)N=C(N)N)cc2)c2ccccc21
Ans. false

Qu. Given CNCCCn1c2ccccc2c2c3c(c(-c4ccsc4)cc21)C(=O)NC3=O , state the outcome it received in this test.
Ans. false

Qu. What outcome does the record of this test show for CCOC(=O)C(NC(=O)c1ccccc1)(Nc1ccc(S(=O)(=O)Nc2cc(C)nc(C)n2)cc1)C(F)(F)F (stereo unspecified) ?
Ans. false

Qu. Could you check what this test reported for O=C1NC(N2CCOCC2)=N/C1=C\c1ccccc1 ?
Ans. false

Qu. Per the records of this test, what outcome belongs to O=C(CCc1cc(O)cc(O)c1)NCCc1cc(O)cc(O)c1 ?
Ans. false

Qu. Hello, I am checking results. What call was entered for N#Cc1ccccc1NC(=O)C(O)C(O)C(O)C(O)C=O (stereo unspecified) ?
Ans. false

Qu. Identify the outcome logged in this assay for the compound shown: c1ccc2c3ccn4ccc5c6ccccc6[nH]c5c4c-3nc2c1
Ans. false

Qu. I'd appreciate the recorded outcome for CCOC(OCC)(OCC)C(Br)CC (stereo unspecified) from this test.
Ans. false

Qu. I would be grateful if you could indicate the recorded call for N#Cc1cc2c(cc1Cl)Sc1nnc(Nc3ccccc3)n1S2(=O)=O .
Ans. false
